A collection of compounds and their measured pIC50
Target: MAGE-A11:PCF11 interaction (GST-MAGE-A11 MHD and FAM-PCF11_4) (Homo sapiens)
Construct: GST-MAGE-A11 MHD (human MAGE-A11 MHD amino acid 218-429); made in house; host or cells: E. coli BL21(DE3)
Sequence (P43364 218-429): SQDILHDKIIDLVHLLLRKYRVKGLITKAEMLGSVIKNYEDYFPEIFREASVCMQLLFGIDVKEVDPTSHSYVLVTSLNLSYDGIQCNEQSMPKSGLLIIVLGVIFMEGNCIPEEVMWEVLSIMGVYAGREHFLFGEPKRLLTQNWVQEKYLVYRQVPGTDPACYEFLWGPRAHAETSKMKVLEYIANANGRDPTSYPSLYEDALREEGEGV
Test: TR-FRET dose response test of compounds for disruption of MAGE-A11:PCF11 binding
Conditions: Supplementary Data 4; read-out: TR-FRET, IC50
pIC50: −log10 of the molar value.

ENTRY SMILES: Clc1ccc2c(NCCCNCc3ccc4[nH]ccc4c3)ccnc2c1
TEST TARGET: MAGE-A11:PCF11 interaction (GST-MAGE-A11 MHD and FAM-PCF11_4) (Homo sapiens)
pIC50: 6.62
//
ENTRY SMILES: CC(C)(C)c1ccc(-c2ccc3c(NCCCNCc4ccco4)ccnc3c2)cc1
TEST TARGET: MAGE-A11:PCF11 interaction (GST-MAGE-A11 MHD and FAM-PCF11_4) (Homo sapiens)
pIC50: 5.94
//
ENTRY SMILES: FC(F)(F)c1cc(-c2ccc3c(NCCCNCc4ccc5[nH]ccc5c4)ccnc3c2)cc(C(F)(F)F)c1
TEST TARGET: MAGE-A11:PCF11 interaction (GST-MAGE-A11 MHD and FAM-PCF11_4) (Homo sapiens)
pIC50: 6.70
//
ENTRY SMILES: FC(F)(F)c1ccc(-c2ccc3c(NCCCNCc4cccc5c4OCO5)ccnc3c2)cc1
TEST TARGET: MAGE-A11:PCF11 interaction (GST-MAGE-A11 MHD and FAM-PCF11_4) (Homo sapiens)
pIC50: 5.39
